Organism: Rattus norvegicus
Assay: DrugMatrix - Regimen: Daily Repeat
Type: toxicity, organism-based, Sprague-Dawley
Set-up: regimen Daily Repeat, gender Male, age 6-8 weeks
Details: in vivo, po, 0 mg/kg, 120 h, tissue Blood, route oral GAVAGE, dose level Control, time 5 day, vehicle .5 % CMC
METRIC_NAME: EOSINOPHIL

COMPOUND	METRIC_NAME	TEST_RESULT
NCCCC(O)(P(=O)(O)O)P(=O)(O)O [ALENDRONIC ACID]	EOSINOPHIL	0.17%
CNCCC(Oc1ccc(C(F)(F)F)cc1)c1ccccc1 (centres undefined) [FLUOXETINE]	EOSINOPHIL	0.17%
CCN(CC)CCOc1ccc(/C(=C(/Cl)c2ccccc2)c2ccccc2)cc1 [ENCLOMIPHENE]	EOSINOPHIL	1%
COC1=C(OC)C(=O)C(CCCCCCCCCCO)=C(C)C1=O [IDEBENONE]	EOSINOPHIL	1%
O=C1CN=C(c2ccccc2Cl)c2cc([N+](=O)[O-])ccc2N1 [CLONAZEPAM]	EOSINOPHIL	1%
O=C1Nc2ccc(Cl)cc2C(c2ccccc2Cl)=NC1O (centres undefined) [LORAZEPAM]	EOSINOPHIL	0.33%
O=C1C(CC[S+]([O-])c2ccccc2)C(=O)N(c2ccccc2)N1c1ccccc1 (centres undefined) [SULFINPYRAZONE]	EOSINOPHIL	0.33%
NC1CCN(c2nc3c(cc2F)c(=O)c(C(=O)O)cn3-c2ccc(F)cc2F)C1 (centres undefined) [TOSUFLOXACIN]	EOSINOPHIL	0.4%
C[C@H]1O[C@@H](n2cc(F)c(=O)[nH]c2=O)[C@H](O)[C@@H]1O [DOXIFLURIDINE]	EOSINOPHIL	1%

----------
Species: Rattus norvegicus
Assay: DrugMatrix - Regimen: Daily Repeat
Assay type: toxicity, organism-based, Sprague-Dawley
Parameters: regimen Daily Repeat, gender Male, age 6-8 weeks
Details: in vivo, po, 0 mg/kg, 72 h, tissue Blood, route oral GAVAGE, dose level Control, time 3 day, vehicle 100 % WATER

COMPOUND	MONOCYTE [%]
CC(C)(C)CC(C)(C)c1ccc(OCCOCC[N+](C)(C)Cc2ccccc2)cc1.[Cl-] [BENZETHONIUM CHLORIDE]	1.17
O.O.O.O.O.O.[Cl-].[Cl-].[Sr+2] [STRONTIUM CHLORIDE HEXAHYDRATE]	1
CCN(CC)CCNC(=O)c1cc(S(C)(=O)=O)ccc1OC [TIAPRIDE]	1
Oc1cccc(O)c1O	2.67
CN(C)CCOC(c1ccccc1)c1ccccc1 [DIPHENHYDRAMINE]	1.17
CN(C)CC[C@@H](c1ccc(Cl)cc1)c1ccccn1	1.33
CC(C)NCC(O)c1ccc(NS(C)(=O)=O)cc1 (configuration not stated)	1.33

----------
Organism: Rattus norvegicus
Test: DrugMatrix - Regimen: Daily Repeat
Assay type: toxicity, organism-based, Sprague-Dawley
Parameters: regimen Daily Repeat, gender Male, age 6-8 weeks
Conditions: in vivo, po, 10 mg/kg, 72 h, tissue Plasma, route oral GAVAGE, dose level Low, time 3 day, vehicle .5 % CMC

MOLECULE	TOTAL PROTEIN / G/DL
O=C1C(CC[S+]([O-])c2ccccc2)C(=O)N(c2ccccc2)N1c1ccccc1 (centres undefined)	6.03
O=C1CN=C(c2ccccc2Cl)c2cc([N+](=O)[O-])ccc2N1	5.6
CNCCC(Oc1ccc(C(F)(F)F)cc1)c1ccccc1 (centres undefined)	6.6
Fc1ccc(C(c2ccc(F)cc2)N2CCN(C/C=C/c3ccccc3)CC2)cc1	6.57

----------
Species on record: Rattus norvegicus
Assay: DrugMatrix - Regimen: Daily Repeat
Format: toxicity, organism-based, Sprague-Dawley
Design: regimen Daily Repeat, gender Male, age 6-8 weeks
Conditions: in vivo, po, 10 mg/kg, 72 h, tissue Blood, route oral GAVAGE, dose level Low, time 3 day, vehicle .5 % CMC
Listed below: MEAN CORPUSCULAR HEMOGLOBIN CONCENTRATION values for each entry.
METRIC_NAME: MEAN CORPUSCULAR HEMOGLOBIN CONCENTRATION (G/DL)

COMPOUND	SCALE_UNIT	TEST_RESULT
O=C1CN=C(c2ccccc2Cl)c2cc([N+](=O)[O-])ccc2N1	G/DL	38.97
CNCCC(Oc1ccc(C(F)(F)F)cc1)c1ccccc1 (centres undefined)	G/DL	39
Fc1ccc(C(c2ccc(F)cc2)N2CCN(C/C=C/c3ccccc3)CC2)cc1	G/DL	39.67
O=C1C(CC[S+]([O-])c2ccccc2)C(=O)N(c2ccccc2)N1c1ccccc1 (centres undefined)	G/DL	40.17

----------
Listed below: ERYTHROCYTE COUNT values for each entry.
Species: Rattus norvegicus
Test: DrugMatrix - Regimen: Daily Repeat
Assay type: toxicity, organism-based, Sprague-Dawley
Design: regimen Daily Repeat, gender Male, age 6-8 weeks
Details: in vivo, po, 0 mg/kg, 72 h, tissue Blood, route oral GAVAGE, dose level Control, time 3 day, vehicle .5 % CMC

MOLECULE	SCALE_UNIT	ERYTHROCYTE COUNT
COC1=C(OC)C(=O)C(CCCCCCCCCCO)=C(C)C1=O [IDEBENONE]	x10E6/uL	5.51
NC1CCN(c2nc3c(cc2F)c(=O)c(C(=O)O)cn3-c2ccc(F)cc2F)C1 (stereo not drawn) [TOSUFLOXACIN]	x10E6/uL	6.43
O=C1Nc2ccc(Cl)cc2C(c2ccccc2Cl)=NC1O (stereo not drawn) [LORAZEPAM]	x10E6/uL	5.56
O=C1CN=C(c2ccccc2Cl)c2cc([N+](=O)[O-])ccc2N1 [CLONAZEPAM]	x10E6/uL	5.51
CN/C(=N/CCSCc1nc[nH]c1C)NC#N [CIMETIDINE]	x10E6/uL	5.51
O=C1C(CC[S+]([O-])c2ccccc2)C(=O)N(c2ccccc2)N1c1ccccc1 (stereo not drawn) [SULFINPYRAZONE]	x10E6/uL	5.56
Clc1ccccc1CN1CCc2sccc2C1 [TICLOPIDINE]	x10E6/uL	6.19
CC(C(=O)O)c1ccc2oc(-c3ccc(Cl)cc3)nc2c1 (stereo not drawn) [BENOXAPROFEN]	x10E6/uL	6.55
NCCCC(O)(P(=O)(O)O)P(=O)(O)O [ALENDRONIC ACID]	x10E6/uL	6.19
CCN(CC)CCOc1ccc(/C(=C(/Cl)c2ccccc2)c2ccccc2)cc1 [ENCLOMIPHENE]	x10E6/uL	5.76
CNCCC(Oc1ccc(C(F)(F)F)cc1)c1ccccc1 (stereo not drawn) [FLUOXETINE]	x10E6/uL	6.34
COc1ccc(C2C(=O)c3ccccc3C2=O)cc1 [ANISINDIONE]	x10E6/uL	6.19
CN(C/C=C/C#CC(C)(C)C)Cc1cccc2ccccc12 [TERBINAFINE]	x10E6/uL	6.43
CC(=O)Oc1ccc(C(c2ccc(OC(C)=O)cc2)c2ccccn2)cc1 [BISACODYL]	x10E6/uL	6.03
COc1cc2nc(N3CCN(C(=O)c4ccco4)CC3)nc(N)c2cc1OC [PRAZOSIN]	x10E6/uL	5.56
Cn1c(=O)c2c(ncn2CC(O)CO)n(C)c1=O (stereo not drawn) [DYPHYLLINE]	x10E6/uL	5.45
C[C@H]1O[C@@H](n2cc(F)c(=O)[nH]c2=O)[C@H](O)[C@@H]1O [DOXIFLURIDINE]	x10E6/uL	5.51
CN(C)[C@@H]1C(O)=C(C(N)=O)C(=O)[C@@]2(O)C(O)=C3C(=O)c4c(O)ccc(Cl)c4[C@@](C)(O)[C@H]3C[C@@H]12 [CHLORTETRACYCLINE]	x10E6/uL	5.45

----------
Organism: Rattus norvegicus
Experiment: DrugMatrix - Regimen: Daily Repeat
Type: toxicity, organism-based, Sprague-Dawley
Set-up: regimen Daily Repeat, gender Male, age 6-8 weeks
Conditions: in vivo, po, 0 mg/kg, 72 h, tissue Plasma, route oral GAVAGE, dose level Control, time 3 day, vehicle 100 % WATER
METRIC_NAME: GLUCOSE

COMPOUND	TEST_RESULT
C[C@]12C=CC(=O)C=C1CC[C@@H]1[C@@H]2[C@@H](O)C[C@@]2(C)[C@H]1CC[C@]2(O)C(=O)CO [PREDNISOLONE]	162.17 mg/dL
CN(C)CC[C@@H](c1ccc(Cl)cc1)c1ccccn1 [DEXCHLORPHENIRAMINE]	154.5 mg/dL
CC(C)NCC(O)c1ccc(NS(C)(=O)=O)cc1 (centres undefined) [SOTALOL]	149.17 mg/dL
CN(C)CCOC(c1ccccc1)c1ccccc1 [DIPHENHYDRAMINE]	168.5 mg/dL
Cn1c(=O)c2[nH]cnc2n(C)c1=O.O [THEOPHYLLINE]	143 mg/dL
CS(=O)(=O)c1ccc([C@@H](O)[C@@H](CO)NC(=O)C(Cl)Cl)cc1 [THIAMPHENICOL]	163.5 mg/dL
Oc1cccc(O)c1O [PYROGALLOL]	175 mg/dL
CN1[C@@H]2CC[C@H]1C[C@@H](OC(=O)C(CO)c1ccccc1)C2 (some centres undefined) [ATROPINE]	164.67 mg/dL
O.O.O.O.O.O.[Cl-].[Cl-].[Sr+2] [STRONTIUM CHLORIDE HEXAHYDRATE]	163.5 mg/dL
